ASSAY_TARGET: T1, human soluble αvβ5 protein (extracellular domains of human αv and β5 integrin subunits) (human, UniProt P06756 31-992; P18084 24-719)
T1 construct: also called biotin-αvβ5; hsαvβ5
T1 sequence (P06756 31-992 limits assumed, chain 1 of 2): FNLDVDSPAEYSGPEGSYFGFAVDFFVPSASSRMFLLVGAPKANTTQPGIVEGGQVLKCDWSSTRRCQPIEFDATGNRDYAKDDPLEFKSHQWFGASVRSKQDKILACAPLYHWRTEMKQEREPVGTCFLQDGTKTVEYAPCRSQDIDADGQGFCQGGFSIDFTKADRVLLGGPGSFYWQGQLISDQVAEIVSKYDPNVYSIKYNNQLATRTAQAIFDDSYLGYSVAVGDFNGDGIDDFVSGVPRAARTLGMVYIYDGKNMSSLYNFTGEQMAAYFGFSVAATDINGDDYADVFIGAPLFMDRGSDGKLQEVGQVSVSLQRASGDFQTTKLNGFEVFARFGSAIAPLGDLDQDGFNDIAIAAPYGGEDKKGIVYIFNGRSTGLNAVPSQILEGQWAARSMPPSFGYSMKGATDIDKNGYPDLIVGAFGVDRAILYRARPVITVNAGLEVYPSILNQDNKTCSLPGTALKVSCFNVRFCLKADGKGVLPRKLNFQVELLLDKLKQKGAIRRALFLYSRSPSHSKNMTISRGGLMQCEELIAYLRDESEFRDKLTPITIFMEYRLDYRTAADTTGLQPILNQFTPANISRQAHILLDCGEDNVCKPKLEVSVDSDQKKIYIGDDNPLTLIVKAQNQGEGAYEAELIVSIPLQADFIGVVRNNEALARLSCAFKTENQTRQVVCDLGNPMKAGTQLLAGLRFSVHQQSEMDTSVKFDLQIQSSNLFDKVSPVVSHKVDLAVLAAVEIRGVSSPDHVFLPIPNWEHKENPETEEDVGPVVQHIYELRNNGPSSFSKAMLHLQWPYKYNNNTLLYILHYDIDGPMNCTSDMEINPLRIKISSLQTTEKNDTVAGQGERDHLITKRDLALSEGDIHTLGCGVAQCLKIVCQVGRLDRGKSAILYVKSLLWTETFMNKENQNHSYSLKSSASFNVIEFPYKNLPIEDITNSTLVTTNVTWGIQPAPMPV
T1 sequence (P18084 24-719 limits assumed, chain 2 of 2): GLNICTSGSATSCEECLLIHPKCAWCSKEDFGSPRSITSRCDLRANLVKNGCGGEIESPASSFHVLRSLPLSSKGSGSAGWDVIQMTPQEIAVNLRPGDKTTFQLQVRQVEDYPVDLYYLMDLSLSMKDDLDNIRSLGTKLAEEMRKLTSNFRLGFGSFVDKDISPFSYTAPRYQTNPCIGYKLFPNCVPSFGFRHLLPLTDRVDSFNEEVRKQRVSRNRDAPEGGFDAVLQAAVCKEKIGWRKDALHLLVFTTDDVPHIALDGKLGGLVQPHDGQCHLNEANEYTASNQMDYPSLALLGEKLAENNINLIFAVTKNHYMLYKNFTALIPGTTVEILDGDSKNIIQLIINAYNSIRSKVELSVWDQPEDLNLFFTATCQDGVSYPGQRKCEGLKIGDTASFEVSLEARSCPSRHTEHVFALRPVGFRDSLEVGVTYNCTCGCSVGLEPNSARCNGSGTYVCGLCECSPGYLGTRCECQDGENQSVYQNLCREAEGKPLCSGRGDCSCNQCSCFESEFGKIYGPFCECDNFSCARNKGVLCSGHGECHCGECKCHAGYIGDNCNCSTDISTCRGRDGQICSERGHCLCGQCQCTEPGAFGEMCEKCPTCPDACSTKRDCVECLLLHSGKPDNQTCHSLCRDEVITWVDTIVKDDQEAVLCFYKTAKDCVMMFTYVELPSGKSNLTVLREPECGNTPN
PROTOCOL_NOTES: ELISA, inhibition of soluble αvβ5 binding to coated human plasma vitronectin
Rule: measured IC50 below 2 nM gets fulfilled; anything equal to or greater than 2 nM gets not fulfilled.

VH5/VL2 Agly-hIgG1(T299A) (antibody, V domains shown, also called H5/L2 (Agly-IgG1)) VH: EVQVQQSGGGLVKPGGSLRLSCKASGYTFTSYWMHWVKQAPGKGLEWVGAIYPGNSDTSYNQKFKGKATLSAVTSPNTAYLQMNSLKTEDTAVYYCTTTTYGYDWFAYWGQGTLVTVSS VL: NIQMTQSPSSLSASVGDRVTMSCKSSQSVLYSSNQKNYLAWYQQKPGKSPKLLIYWASTRESGVPDRFTGSGSGTDFTLTISSLQPEDFATYYCHQYLSSLTFGQGTKLEIK : fulfilled

Task item: Identify whether the binder VH5/VL1 Agly-hIgG1(T299A) (antibody, V domains shown, also called H5/L1) VH: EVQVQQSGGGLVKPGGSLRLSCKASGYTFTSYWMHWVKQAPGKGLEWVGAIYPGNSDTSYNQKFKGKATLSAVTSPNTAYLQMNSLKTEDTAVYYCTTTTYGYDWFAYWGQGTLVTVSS VL: DIQMTQSPSSLSASVGDRVTMTCKSSQSVLYSSNQKNYLAWYQQKPGKAPKLLIYWASTRESGVPDRFSGSGSGTDFTLTISSLQPEDFATYYCHQYLSSLTFGQGTKLEIK records IC50 below 2 nM.
Reply: fulfilled

Task item: Identify whether the binder VH2/VL0 Agly-hIgG1(T299A) (antibody, V domains shown, also called H2/L0) VH: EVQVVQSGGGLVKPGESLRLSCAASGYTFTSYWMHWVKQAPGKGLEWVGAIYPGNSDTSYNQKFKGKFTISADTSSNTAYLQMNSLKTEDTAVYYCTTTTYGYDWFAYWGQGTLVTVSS VL: DIQMTQSPSSVSASVGDRVTITCKSSQSVLYSSNQKNYLAWYQQKPGKAPKLLIYWASTRESGVPSRFSGSGSGTDFTLTISSLQPEDFATYYCHQYLSSLTFGQGTKVEIK records IC50 below 2 nM.
Reply: not fulfilled

Task item: Identify whether the binder VH4/VL2 Agly-hIgG1(T299A) (antibody, V domains shown, also called H4/L2 (Agly-IgG1)) VH: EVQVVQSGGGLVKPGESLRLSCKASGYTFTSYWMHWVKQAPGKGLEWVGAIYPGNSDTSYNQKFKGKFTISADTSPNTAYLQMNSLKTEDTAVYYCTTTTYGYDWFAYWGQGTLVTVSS VL: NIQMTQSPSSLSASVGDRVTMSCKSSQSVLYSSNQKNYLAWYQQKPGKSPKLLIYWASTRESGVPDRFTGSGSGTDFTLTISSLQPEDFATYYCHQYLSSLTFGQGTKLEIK records IC50 below 2 nM.
Reply: fulfilled

Task item: Identify whether the binder VH3/VL2 Agly-hIgG1(T299A) (antibody, V domains shown, also called H3/L2) VH: EVQVVESGGGLVKPGGSLRLSCKASGYTFTSYWMHWVKQAPGKGLEWVGAIYPGNSDTSYNQKFKGKFTLSAVTSSNTAYLQMNSLKTEDTAVYYCTTTTYGYDWFAYWGQGTLVTVSS VL: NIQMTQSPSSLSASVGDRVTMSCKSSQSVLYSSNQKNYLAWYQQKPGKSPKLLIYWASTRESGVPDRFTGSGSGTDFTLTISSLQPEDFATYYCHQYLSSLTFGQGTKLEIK records IC50 below 2 nM.
Reply: not fulfilled

Task item: Identify whether the binder VH0/VL1 Agly-hIgG1(T299A) (antibody, V domains shown, also called H0/L1) VH: EVQLVESGGGLVKPGGSLRLSCAASGYTFTSYWMHWVRQAPGKGLEWVGAIYPGNSDTSYNQKFKGRFTISRDDSKNTLYLQMNSLKTEDTAVYYCTTTTYGYDWFAYWGQGTLVTVSS VL: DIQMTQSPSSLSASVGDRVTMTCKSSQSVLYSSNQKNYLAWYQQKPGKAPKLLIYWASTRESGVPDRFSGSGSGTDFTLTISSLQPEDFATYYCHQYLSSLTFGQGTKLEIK records IC50 below 2 nM.
Reply: not fulfilled
